Origin of values: patent US20070265189A1

Reported Ratio over Background values for a set of binders
# target entity: T1, Soluble IGF-1R (sIGF-1R), R&D Systems Cat. # 391-GR/CF (UniProt P08069 31-935, limits assumed)
# T1 construct: extracellular domain
# protocol text: phage ELISA
assay readout: Ratio over Background

{"columns": ["binder", "result value"],
 "data": [
  ["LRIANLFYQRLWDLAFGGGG [20E2B-3-E8-IGFR]", 16.7],
  ["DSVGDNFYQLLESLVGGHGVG [20E2B-3-D6-IGFR]", 17.8],
  ["YRGMLVLGRISGGAGKAASERPARIGQKVSAVNFYDWFV [A6L-0-H3-IR]", 26],
  ["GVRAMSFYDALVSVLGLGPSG [20E2B-1-A6-IGFR]", 18.1],
  ["LKDGFYDYFWQRLHLGS [NNRPγ-4-B11-IR]", 18.7],
  ["SAAQLFFQESFYDWFLRQVAESSQPN [H2CA-4-F11-IGFR]", 6.8],
  ["RGQSDAFYSGLWALIGLSDG [R20β-4-A6-IR]", 25.9],
  ["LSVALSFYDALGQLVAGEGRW [20E2A-3-A12-IGFR]", 4.3],
  ["AQPCGGFYGLLEQLVGRSVCD [20E2B-4-F10-IGFR]", 17.3],
  ["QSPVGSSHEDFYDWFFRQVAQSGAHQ [H2CA-3-D6-IGFR]", 9],
  ["SSIGGGFHENFYDWFSRQLSQSPPLK [H2CA-4-F7-IGFR]", 3.2],
  ["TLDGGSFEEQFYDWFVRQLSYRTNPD [H2CA-4-G11-IGFR]", 9.5],
  ["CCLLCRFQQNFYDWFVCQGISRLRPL [H2CA-2-B4-IGFR]", 4.1],
  ["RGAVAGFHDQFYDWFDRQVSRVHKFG [H2CA-4-H9-IGFR]", 5.6]
]}
